System: ATP;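 note: ATP exposure 15 min at 22 °C before imaging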
Experiment: switch fluorescence ratio, 500 uM ATP over buffer (Cy3 cluster intensity, sum of 5 cycles each) (fold (ratio)); higher = stronger signal-on switching upon ATP binding; sequences stand for … in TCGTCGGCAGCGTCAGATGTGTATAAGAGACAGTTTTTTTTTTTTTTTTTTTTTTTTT…TC
Details: aptamer strand: ATP DNA aptamer (quencher-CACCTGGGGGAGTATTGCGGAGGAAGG + anchor), 100 nM annealed; ATP concentration: 500 uM
parameter: switch fluorescence ratio

1. ATTGTTTCAG; 0.976
2. TGAAGGGGTA; 1.01
3. TGAGATGAAG; 1
4. TTTTAAGAGT; 0.992

* * *

Each record here notes measured switch fluorescence ratio.
Tested on: ATP;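 note: ATP exposure 15 min at 22 °C before imaging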
Test: switch fluorescence ratio, 500 uM ATP over buffer (Cy3 cluster intensity, sum of 5 cycles each) (fold (ratio)); higher = stronger signal-on switching upon ATP binding; sequences stand for … in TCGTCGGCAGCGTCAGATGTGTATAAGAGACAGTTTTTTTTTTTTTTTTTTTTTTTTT…TC
Conditions: aptamer strand: ATP DNA aptamer (quencher-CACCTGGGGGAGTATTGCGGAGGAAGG + anchor), 100 nM annealed; ATP concentration: 500 uM
parameter: switch fluorescence ratio

1) GGCGGGACGA; 0.973
2) CTAGATCGGT; 0.982
3) ACGAAGGGTC; 0.994
4) TTTGGAATCA; 1.01
5) TAATTCAATG; 0.997
6) TCATGGATCC; 1.01
7) TGGGCATATA; 0.996
8) GGTAAAAGGT; 1.02
9) AGTAGTCGTC; 0.99
10) GCTCTAGGGA; 0.984
11) AGGGGGTTTT; 1
12) CGGATGATAG; 1

* * *

Each record here notes measured switch fluorescence ratio.
Test system: ATP;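 note: ATP exposure 15 min at 22 °C before imaging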
Assay: switch fluorescence ratio, 500 uM ATP over buffer (Cy3 cluster intensity, sum of 5 cycles each) (fold (ratio)); higher = stronger signal-on switching upon ATP binding; sequences stand for … in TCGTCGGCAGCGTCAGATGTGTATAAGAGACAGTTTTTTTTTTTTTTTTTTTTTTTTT…TC
Details: aptamer strand: ATP DNA aptamer (quencher-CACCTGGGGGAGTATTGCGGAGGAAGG + anchor), 100 nM annealed; ATP concentration: 500 uM
parameter: switch fluorescence ratio

1. GCGGGTTATG; 1.02
2. GTGGATATTG; 1
3. GCTTCGGAGT; 1.06
4. CAGTGGGAGA; 1.02
5. CTCGGGGGGG; 0.998
6. AGGGGACGAC; 1.02
7. TTCGGTGGCG; 0.978
8. ATTTTTATTC; 0.991
9. TCGAAGGGTT; 0.993
10. CTCGCATGGT; 1.37
11. ACCGGTTTCT; 0.997
12. TTGGGGATTA; 1.09
13. TTGGTTCTGA; 1.02
14. GGGGGGGAT; 1.02
15. GTAGGTCGAC; 1.01
16. AATTATGTTT; 0.995
17. TGTTAGTTTG; 0.981
18. TAAGGTTGGG; 0.993
19. TCTGGTAGGG; 0.99
20. GCCTCGTTGG; 0.98
21. TGAAAGGCTC; 1.1
22. TGGGTGGCAA; 1.03
23. CCAGGCTCTG; 0.993
24. TTTTAGTGTT; 1
25. TAGGAGATGA; 1
26. CGTTACGGGA; 1.02
27. GCTTATACGA; 1.55
28. TTATTAAGGT; 1.01
29. GGTGTAGCTT; 1.01
30. GGCGTATATG; 0.973
31. GAACACGGCG; 1
32. GTTGCAAGAA; 1.13
33. TATGGACTGT; 1.02
34. TTCAAGCTGG; 1.04
35. TTATCTCGTA; 0.99
36. TTAGTTTTGT; 0.999
37. AATTGAAAAA; 1.05
38. GTATGATTTA; 0.989
39. GCTTGGTCGT; 1.03
40. AATAGAGGAT; 0.971
41. TTTATGGATC; 1.01
42. TAAAGGATCC; 1.02
